This collection of values is drawn from ChEMBL document CHEMBL3822370.

ASSAY_SYSTEM: SWI/SNF-related matrix-associated actin-dependent regulator of chromatin subfamily A member 4 (Homo sapiens)
Sequence (P51532 whole entry): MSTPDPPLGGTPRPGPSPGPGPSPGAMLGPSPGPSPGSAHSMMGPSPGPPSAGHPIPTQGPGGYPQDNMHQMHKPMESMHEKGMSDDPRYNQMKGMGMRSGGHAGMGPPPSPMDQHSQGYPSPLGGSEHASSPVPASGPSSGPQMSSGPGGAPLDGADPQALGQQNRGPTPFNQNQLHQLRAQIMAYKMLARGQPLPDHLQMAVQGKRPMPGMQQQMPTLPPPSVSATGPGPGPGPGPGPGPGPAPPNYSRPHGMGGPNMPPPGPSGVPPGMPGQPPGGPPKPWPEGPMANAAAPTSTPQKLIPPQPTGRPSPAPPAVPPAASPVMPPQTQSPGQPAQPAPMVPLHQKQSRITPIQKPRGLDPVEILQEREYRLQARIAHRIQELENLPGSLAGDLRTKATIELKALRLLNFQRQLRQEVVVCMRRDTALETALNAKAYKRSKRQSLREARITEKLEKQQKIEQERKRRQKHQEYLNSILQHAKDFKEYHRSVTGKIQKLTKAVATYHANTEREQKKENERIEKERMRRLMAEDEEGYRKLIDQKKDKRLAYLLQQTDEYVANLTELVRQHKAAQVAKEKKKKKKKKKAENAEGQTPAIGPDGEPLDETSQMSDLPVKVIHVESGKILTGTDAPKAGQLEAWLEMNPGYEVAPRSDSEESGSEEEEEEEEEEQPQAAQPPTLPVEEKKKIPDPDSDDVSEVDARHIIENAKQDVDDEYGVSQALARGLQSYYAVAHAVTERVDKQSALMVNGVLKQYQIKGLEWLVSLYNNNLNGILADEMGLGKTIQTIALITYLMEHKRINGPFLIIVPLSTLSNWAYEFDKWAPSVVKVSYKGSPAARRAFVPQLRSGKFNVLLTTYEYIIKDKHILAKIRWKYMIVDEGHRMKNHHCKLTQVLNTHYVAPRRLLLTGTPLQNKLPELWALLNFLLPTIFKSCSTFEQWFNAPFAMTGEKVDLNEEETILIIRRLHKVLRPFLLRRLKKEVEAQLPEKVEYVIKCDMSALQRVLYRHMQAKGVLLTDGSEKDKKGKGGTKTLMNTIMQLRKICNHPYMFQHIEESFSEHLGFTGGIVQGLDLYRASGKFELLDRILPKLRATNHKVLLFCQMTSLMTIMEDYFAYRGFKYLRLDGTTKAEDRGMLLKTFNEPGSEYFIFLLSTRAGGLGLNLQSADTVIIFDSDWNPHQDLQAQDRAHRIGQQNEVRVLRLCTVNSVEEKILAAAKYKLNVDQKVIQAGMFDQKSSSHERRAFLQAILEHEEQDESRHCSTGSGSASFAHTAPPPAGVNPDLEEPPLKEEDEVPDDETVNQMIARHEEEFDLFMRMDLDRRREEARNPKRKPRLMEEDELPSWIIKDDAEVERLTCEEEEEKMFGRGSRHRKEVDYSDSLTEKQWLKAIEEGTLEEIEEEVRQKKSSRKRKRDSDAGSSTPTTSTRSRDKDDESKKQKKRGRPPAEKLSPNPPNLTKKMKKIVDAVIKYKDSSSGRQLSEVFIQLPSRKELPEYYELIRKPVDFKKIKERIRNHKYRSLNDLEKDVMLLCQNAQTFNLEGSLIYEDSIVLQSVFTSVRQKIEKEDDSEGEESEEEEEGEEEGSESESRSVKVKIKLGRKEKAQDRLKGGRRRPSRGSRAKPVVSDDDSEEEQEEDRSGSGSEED
MEASURED_ATTRIBUTE: Kd (nM)

>>> df
                            molecule_smiles  unit_descriptor  assay_result
0  CN1CCN(/C=C2\CCn3c2nc(=O)c2c(Cl)cccc23)CC1               nM           417

---

// ΔTm collected for Protein polybromo-1 (Homo sapiens, UniProt Q86U86)
MEASURED_ATTRIBUTE: ΔTm (°C)

                            molecule_smiles                              assay_system  unit_descriptor  assay_result
0        CCN(/C=C1\CCn2c1nc(=O)c1ccccc12)CC  Protein polybromo-1 (Homo sapiens, UniProt Q86U86)               °C           4.3
1  CN1CCN(/C=C2\CCn3c2nc(=O)c2c(Cl)cccc23)CC1  Protein polybromo-1 (Homo sapiens, UniProt Q86U86)               °C          10.2
2   CN1CCCN(/C=C2\CCn3c2nc(=O)c2ccccc23)CC1  Protein polybromo-1 (Homo sapiens, UniProt Q86U86)               °C           2.5

---

ASSAY_SYSTEM: SWI/SNF-related matrix-associated actin-dependent regulator of chromatin subfamily A member 2 (Homo sapiens) (UniProt P51531)
Sequence (P51531 whole entry): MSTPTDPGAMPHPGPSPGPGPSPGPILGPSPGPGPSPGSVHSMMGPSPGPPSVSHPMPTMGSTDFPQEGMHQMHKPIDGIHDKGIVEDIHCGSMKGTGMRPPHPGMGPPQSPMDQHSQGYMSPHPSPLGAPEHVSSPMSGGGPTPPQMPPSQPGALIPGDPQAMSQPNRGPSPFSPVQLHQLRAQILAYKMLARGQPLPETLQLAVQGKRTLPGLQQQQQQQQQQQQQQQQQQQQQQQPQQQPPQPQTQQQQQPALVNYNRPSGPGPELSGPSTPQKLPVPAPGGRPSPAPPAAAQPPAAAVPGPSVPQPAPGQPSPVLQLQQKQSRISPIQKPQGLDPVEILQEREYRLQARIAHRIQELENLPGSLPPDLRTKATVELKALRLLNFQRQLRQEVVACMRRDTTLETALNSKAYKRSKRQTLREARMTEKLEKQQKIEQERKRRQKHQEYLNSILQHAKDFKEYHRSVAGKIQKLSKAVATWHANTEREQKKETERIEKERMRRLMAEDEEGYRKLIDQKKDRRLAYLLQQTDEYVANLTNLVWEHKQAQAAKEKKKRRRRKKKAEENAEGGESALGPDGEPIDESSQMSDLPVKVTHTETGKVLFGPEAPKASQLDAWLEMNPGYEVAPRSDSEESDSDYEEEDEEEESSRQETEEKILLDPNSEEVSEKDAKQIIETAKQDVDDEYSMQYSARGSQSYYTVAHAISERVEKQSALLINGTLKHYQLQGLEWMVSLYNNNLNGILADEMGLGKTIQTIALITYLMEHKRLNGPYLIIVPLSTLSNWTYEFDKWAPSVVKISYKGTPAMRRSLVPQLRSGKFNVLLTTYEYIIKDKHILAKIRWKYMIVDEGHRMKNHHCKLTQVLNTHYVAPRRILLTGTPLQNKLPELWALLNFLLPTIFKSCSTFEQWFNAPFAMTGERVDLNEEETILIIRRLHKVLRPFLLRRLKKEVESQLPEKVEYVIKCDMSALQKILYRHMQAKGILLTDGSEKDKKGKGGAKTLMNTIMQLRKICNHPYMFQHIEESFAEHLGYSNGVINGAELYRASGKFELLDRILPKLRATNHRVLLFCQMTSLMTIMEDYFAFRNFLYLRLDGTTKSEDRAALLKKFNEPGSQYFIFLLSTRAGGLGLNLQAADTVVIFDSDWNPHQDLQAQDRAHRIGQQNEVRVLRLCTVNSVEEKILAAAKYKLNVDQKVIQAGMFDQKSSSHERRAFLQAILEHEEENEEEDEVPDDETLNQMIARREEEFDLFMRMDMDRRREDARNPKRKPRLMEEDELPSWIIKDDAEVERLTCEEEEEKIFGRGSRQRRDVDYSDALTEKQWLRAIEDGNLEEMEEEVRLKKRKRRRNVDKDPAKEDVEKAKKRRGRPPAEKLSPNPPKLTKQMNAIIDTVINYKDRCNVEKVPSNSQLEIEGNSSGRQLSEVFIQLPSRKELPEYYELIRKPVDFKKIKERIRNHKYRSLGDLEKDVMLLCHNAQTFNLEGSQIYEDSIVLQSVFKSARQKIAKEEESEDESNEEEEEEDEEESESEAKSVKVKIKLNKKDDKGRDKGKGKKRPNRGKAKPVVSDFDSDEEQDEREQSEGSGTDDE
PROTOCOL: Binding affinity to His6-tagged human recombinant SMARCA2B bromodomain expressed in Escherichia coli BL21(DE3)-R3-pRARE2 cells assessed as change in melting temperature at 10 uM by SyproOrange dye based DSF thermal shift assay
In this section we review reported ΔTm values for a set of molecules.
MEASURED_ATTRIBUTE: ΔTm (°C)

In [3]: df
Out[3]:
                            molecule_smiles  measured_attribute  assay_result
0    CCN(/C=C1\CCn2c1nc(=O)c1c(Cl)cccc12)CC                 ΔTm           2.5
1   O=c1nc2n(c3cccc(Cl)c13)CC/C2=C\C1CCOCC1                 ΔTm           2.3
2    CCC(/C=C1\CCn2c1nc(=O)c1c(Cl)cccc12)CC                 ΔTm           2.5
3  CCN1CCN(/C=C2\CCn3c2nc(=O)c2c(Cl)cccc23)CC1                 ΔTm           4.1
4      CN(C)/C=C1\CCn2c1nc(=O)c1c(Cl)cccc12                 ΔTm           2.7

---

ΔTm values, listed per item
ASSAY_SYSTEM: Protein polybromo-1 (Homo sapiens)
Sequence (Q86U86 whole entry): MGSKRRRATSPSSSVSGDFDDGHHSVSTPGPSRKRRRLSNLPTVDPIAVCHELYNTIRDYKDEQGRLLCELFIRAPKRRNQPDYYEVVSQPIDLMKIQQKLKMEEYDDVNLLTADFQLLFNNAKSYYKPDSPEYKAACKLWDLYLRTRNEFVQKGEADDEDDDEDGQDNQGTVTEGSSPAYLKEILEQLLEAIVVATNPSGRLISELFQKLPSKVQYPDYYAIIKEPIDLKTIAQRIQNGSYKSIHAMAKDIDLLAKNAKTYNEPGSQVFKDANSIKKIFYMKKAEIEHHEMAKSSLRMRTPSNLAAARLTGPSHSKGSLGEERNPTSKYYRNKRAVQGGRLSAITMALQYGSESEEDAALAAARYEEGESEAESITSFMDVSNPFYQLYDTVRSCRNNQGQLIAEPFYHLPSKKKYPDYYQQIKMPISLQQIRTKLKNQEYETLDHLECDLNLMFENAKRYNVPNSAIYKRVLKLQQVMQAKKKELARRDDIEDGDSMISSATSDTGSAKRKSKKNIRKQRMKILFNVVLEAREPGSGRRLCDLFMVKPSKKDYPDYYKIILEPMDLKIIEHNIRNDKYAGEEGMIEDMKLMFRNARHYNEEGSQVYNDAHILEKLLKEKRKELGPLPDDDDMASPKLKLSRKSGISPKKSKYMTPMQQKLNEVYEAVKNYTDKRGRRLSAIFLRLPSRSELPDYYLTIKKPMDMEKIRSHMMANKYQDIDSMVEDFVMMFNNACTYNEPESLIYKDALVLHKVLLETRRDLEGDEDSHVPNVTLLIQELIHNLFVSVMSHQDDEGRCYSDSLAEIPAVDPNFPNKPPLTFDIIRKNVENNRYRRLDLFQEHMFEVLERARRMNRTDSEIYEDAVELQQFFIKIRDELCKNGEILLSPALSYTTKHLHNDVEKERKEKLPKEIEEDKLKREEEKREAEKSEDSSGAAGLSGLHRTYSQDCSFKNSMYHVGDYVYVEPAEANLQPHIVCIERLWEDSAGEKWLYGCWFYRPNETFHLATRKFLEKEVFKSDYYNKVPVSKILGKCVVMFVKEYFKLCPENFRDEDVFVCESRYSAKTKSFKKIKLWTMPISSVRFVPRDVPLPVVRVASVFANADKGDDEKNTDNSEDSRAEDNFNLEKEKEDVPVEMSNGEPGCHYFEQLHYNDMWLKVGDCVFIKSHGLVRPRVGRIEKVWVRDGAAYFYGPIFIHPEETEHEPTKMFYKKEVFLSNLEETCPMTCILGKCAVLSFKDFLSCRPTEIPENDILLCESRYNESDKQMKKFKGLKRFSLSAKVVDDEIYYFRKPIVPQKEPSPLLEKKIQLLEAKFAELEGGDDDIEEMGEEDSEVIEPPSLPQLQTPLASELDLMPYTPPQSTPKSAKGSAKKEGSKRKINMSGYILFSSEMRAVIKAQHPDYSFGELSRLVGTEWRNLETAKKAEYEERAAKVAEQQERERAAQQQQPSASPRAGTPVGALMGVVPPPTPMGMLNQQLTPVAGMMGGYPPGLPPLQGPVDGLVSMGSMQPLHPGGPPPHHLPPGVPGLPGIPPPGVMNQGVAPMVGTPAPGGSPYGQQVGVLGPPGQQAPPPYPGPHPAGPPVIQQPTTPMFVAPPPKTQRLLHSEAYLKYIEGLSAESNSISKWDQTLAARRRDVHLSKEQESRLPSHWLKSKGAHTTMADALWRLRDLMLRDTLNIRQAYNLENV
MEASURED_ATTRIBUTE: ΔTm (°C)

>>> print(df.to_string())
                             molecule_smiles  assay_result
 0      CN(C)/C=C1\CCn2c1nc(=O)c1c(Cl)cccc12             1
 1  CN1CCC(/C=C2\CCn3c2nc(=O)c2c(Cl)cccc23)CC1           0.7
 2    CCC(/C=C1\CCn2c1nc(=O)c1c(Cl)cccc12)CC           3.1
 3  CCN1CCN(/C=C2\CCn3c2nc(=O)c2c(Cl)cccc23)CC1           1.4
 4  CN1CCN(/C=C2\CCn3c2nc(=O)c2c(Cl)cccc23)CC1           1.3
 5   O=c1nc2n(c3cccc(Cl)c13)CC/C2=C\C1CCCCC1           0.4
 6   O=c1nc2n(c3cccc(Cl)c13)CC/C2=C\C1CCOCC1           1.6
 7    O=c1nc2n(c3cccc(Cl)c13)CC/C2=C\N1CCCC1           0.2
 8   O=c1nc2n(c3cccc(Cl)c13)CC/C2=C\N1CCCCC1           0.8
 9    CCN(/C=C1\CCn2c1nc(=O)c1c(Cl)cccc12)CC           0.2
10   O=c1nc2n(c3cccc(Cl)c13)CC/C2=C\N1CCOCC1           0.4
